Where do the numbers come from? From the NIST ThermoML archive (doi:10.1016/j.tca.2011.08.002).

# Method Notes: refractive index (Na D-line) (dimensionless)
# Assay Setup: 318.15 K; 101.33 kPa; Liquid; Standard Abbe refractometry
Measure: refractive index

{"Compound": "CCC(C)O (stereo unspecified)", "Measure": "refractive index", "Endpoint Value": 1.38596}
{"Compound": "CCCCO", "Measure": "refractive index", "Endpoint Value": 1.38901}
{"Compound": "CC(C)(C)O", "Measure": "refractive index", "Endpoint Value": 1.37384}
{"Compound": "CCCO", "Measure": "refractive index", "Endpoint Value": 1.37483}
{"Compound": "C1CCC(NC2CCCCC2)CC1", "Measure": "refractive index", "Endpoint Value": 1.47347}
{"Compound": "CCCCCO", "Measure": "refractive index", "Endpoint Value": 1.39987}

----------
# Assay Setup: 293.15 K; 101 kPa; Liquid; Vibrating tube method
// values below are reported mass density

{"Compound": "CCCO", "Readout Units": "kg/m3", "mass density": 803.703}
{"Compound": "CCCCCO", "Readout Units": "kg/m3", "mass density": 814.635}
{"Compound": "CCCCO", "Readout Units": "kg/m3", "mass density": 809.573}
{"Compound": "C1CCC(NC2CCCCC2)CC1", "Readout Units": "kg/m3", "mass density": 911.705}
{"Compound": "CCC(C)O (stereo not given)", "Readout Units": "kg/m3", "mass density": 806.646}

----------
# Assay Setup: 288.15 K; 101 kPa; Liquid; Vibrating tube method
± gives the expanded uncertainty stated by the source.
// values below are reported mass density

{"Molecule": "C1CCC(NC2CCCCC2)CC1", "mass density": "915.498 ± 0.23 kg/m3"}
{"Molecule": "CCCO", "mass density": "807.69 ± 0.15 kg/m3"}
{"Molecule": "CCCCO", "mass density": "813.373 ± 0.14 kg/m3"}
{"Molecule": "CCC(C)O (stereo not given)", "mass density": "810.689 ± 0.24 kg/m3"}
{"Molecule": "CCCCCO", "mass density": "818.282 ± 0.24 kg/m3"}

----------
# Method Notes: refractive index (Na D-line) (dimensionless)
# Assay Setup: 303.15 K; 101.33 kPa; Liquid; Standard Abbe refractometry
// values below are reported refractive index

{"Compound": "CC(C)(C)O", "refractive index": 1.38222}
{"Compound": "CCCCO", "refractive index": 1.39523}
{"Compound": "C1CCC(NC2CCCCC2)CC1", "refractive index": 1.47978}
{"Compound": "CCCO", "refractive index": 1.38153}
{"Compound": "CCCCCO", "refractive index": 1.40595}
{"Compound": "CCC(C)O (stereo unspecified)", "refractive index": 1.39293}

----------
# Method Notes: refractive index (Na D-line) (dimensionless)
# Assay Setup: 323.15 K; 101.33 kPa; Liquid; Standard Abbe refractometry
// values below are reported refractive index

{"Molecule": "CCCCO", "refractive index": 1.38688}
{"Molecule": "CCCCCO", "refractive index": 1.39776}
{"Molecule": "C1CCC(NC2CCCCC2)CC1", "refractive index": 1.47134}
{"Molecule": "CC(C)(C)O", "refractive index": 1.37097}
{"Molecule": "CCCO", "refractive index": 1.37252}
{"Molecule": "CCC(C)O (stereo unspecified)", "refractive index": 1.38352}

----------
# Assay Setup: 298.15 K; 101 kPa; Liquid; Vibrating tube method

{"Compound": "C1CCC(NC2CCCCC2)CC1", "mass density [kg/m3]": 907.923}
{"Compound": "CCCO", "mass density [kg/m3]": 799.692}
{"Compound": "CCCCO", "mass density [kg/m3]": 805.762}
{"Compound": "CCCCCO", "mass density [kg/m3]": 810.968}
{"Compound": "CCC(C)O (stereo not given)", "mass density [kg/m3]": 802.528}

----------
# Method Notes: refractive index (Na D-line) (dimensionless)
# Assay Setup: 288.15 K; 101.33 kPa; Liquid; Standard Abbe refractometry
// values below are reported refractive index
Measure: refractive index

{"Molecule": "CCCCO [butan-1-ol]", "Endpoint Value": 1.40135}
{"Molecule": "CCCO [propan-1-ol]", "Endpoint Value": 1.38785}
{"Molecule": "CCC(C)O (stereo not given) [butan-2-ol]", "Endpoint Value": 1.39951}
{"Molecule": "CCCCCO [pentan-1-ol]", "Endpoint Value": 1.41192}
{"Molecule": "C1CCC(NC2CCCCC2)CC1 [N-cyclohexylcyclohexanamine]", "Endpoint Value": 1.48636}

----------
# Method Notes: refractive index (Na D-line) (dimensionless)
# Assay Setup: 308.15 K; 101.33 kPa; Liquid; Standard Abbe refractometry
± gives the expanded uncertainty stated by the source.

{"Compound": "C1CCC(NC2CCCCC2)CC1", "refractive index": "1.47761 ± 0.0004"}
{"Compound": "CCCCO", "refractive index": "1.39318 ± 0.00036"}
{"Compound": "CCCO", "refractive index": "1.37929 ± 0.00036"}
{"Compound": "CCC(C)O (stereo unspecified)", "refractive index": "1.39064 ± 0.0004"}
{"Compound": "CCCCCO", "refractive index": "1.40388 ± 0.0004"}
{"Compound": "CC(C)(C)O", "refractive index": "1.37947 ± 0.00035"}
